Reference for the values: paper PMC7586344

We begin with a simple list: items and their reported remaining at 2 h, 50 μM.
assay.overview: Preliminary metabolic stability in rat liver microsomes
Type: in vitro ADME
assay.setup: pH 7.4, RLMs 1 mg/mL, 50 μM compound, 37 °C
measure.name: remaining at 2 h, 50 μM (%)

compound | assay.value
O=C(c1ccc(F)c(Cl)c1)N1CCC(F)(CNCCOc2ccccn2)CC1 [Compound 2] | 59.4
O=C(c1ccc(F)c(Cl)c1)N1CCC(F)(CNCCOc2ccccc2)CC1 [Compound 3] | 59.2
O=C(c1ccc(F)c(Cl)c1)N1CCC(F)(CNCCOc2cccc3[nH]ccc23)CC1 [Compound 56] | 87.4
